Just for reference, paper PMC3388095 is where these values come from.

Kd values for the compounds below.
- targetDesc: p38α MAPK insert (Homo sapiens, UniProt Q16539, C119S/C162S/S252C)
- Construct: His-tag with PreScission Protease cleavage site (N); made in house; host or cells: E. coli BL21(DE3) Codon+RIL
- Sequence (Q16539 whole entry C119S/C162S/S252C): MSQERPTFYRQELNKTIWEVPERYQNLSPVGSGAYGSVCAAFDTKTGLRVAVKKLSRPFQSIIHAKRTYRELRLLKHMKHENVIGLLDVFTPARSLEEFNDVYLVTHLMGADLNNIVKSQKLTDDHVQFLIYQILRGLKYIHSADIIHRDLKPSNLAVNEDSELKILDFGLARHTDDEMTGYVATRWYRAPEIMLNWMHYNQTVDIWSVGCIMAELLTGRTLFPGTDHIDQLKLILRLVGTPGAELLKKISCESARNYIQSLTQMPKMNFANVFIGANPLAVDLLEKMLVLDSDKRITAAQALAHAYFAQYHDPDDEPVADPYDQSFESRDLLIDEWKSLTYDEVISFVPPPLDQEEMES
- experimentDescription: FLiK direct binding assay, acrylodan-labeled p38α (S252C) MAPK insert / lipid binding site
- measurementContext: binding to p38α MAPK insert; ratiometric acrylodan emission; each concentration in triplicate
Give just the numeric value; µM need not be written.

Examples with answers:
* O=[N+]([O-])c1ccc2c(NCc3ccccc3)nc(-c3ccccc3)nc2c1 [7a] | 0.32
* O=[N+]([O-])c1ccc2c(NCCc3ccccc3)nc(-c3ccncc3)nc2c1 [8c] | 1.8
* O=[N+]([O-])c1ccc2c(NC3CC3)nc(-c3ccccc3)nc2c1 [1a] | 1.9

Kindly review the next compound as well.
Q: Any idea what its Kd is? The compound is Nc1ccc2c(NCc3ccccc3)nc(-c3ccccc3)nc2c1 [7b]
Result: 2.2
